All values here come from ChEMBL document CHEMBL2093137.

# System: Leishmania infantum
# Assay info: WHO-TDR: Leishmaniasis
# Assay type: functional, organism-based, Mus musculus
# Stated conditions: Macrophage
Quantity measured: IC50 (µg/mL)

>  <Given smiles>
COc1ccc(Cl)c2sc(N(CCCN(C)C)C(=O)c3ccc(Br)s3)nc12

>  <Target system>
Leishmania infantum

>  <Measure unit>
µg/mL

>  <Reading qualifier>
=

>  <Result value>
0.51

$$$$
>  <Given smiles>
CCCc1cc(=O)[nH]c(-n2nc(C)cc2NC(=O)C23CC4CC(CC(C4)C2)C3)n1

>  <Target system>
Leishmania infantum

>  <Measure unit>
µg/mL

>  <Reading qualifier>
=

>  <Result value>
3.84

$$$$
>  <Given smiles>
Cc1ccc(-n2ccnc2N2CCN(C(=O)c3ccccc3SC(F)F)CC2)cc1

>  <Target system>
Leishmania infantum

>  <Measure unit>
µg/mL

>  <Reading qualifier>
>

>  <Result value>
13.9

$$$$
>  <Given smiles>
COc1cccc(-c2cn3c(C(=O)N4CCN(c5ccccc5OC)CC4)csc3n2)c1

>  <Target system>
Leishmania infantum

>  <Measure unit>
µg/mL

>  <Reading qualifier>
=

>  <Result value>
6.97

$$$$
>  <Given smiles>
COc1ccc(N2CCCS2(=O)=O)cc1NC(=O)c1cc(Cl)ccc1OC

>  <Target system>
Leishmania infantum

>  <Measure unit>
µg/mL

>  <Reading qualifier>
=

>  <Result value>
0.399

$$$$
>  <Given smiles>
CSCc1csc(NC(=O)Cc2ccc(Cl)cc2)n1

>  <Target system>
Leishmania infantum

>  <Measure unit>
µg/mL

>  <Reading qualifier>
>

>  <Result value>
9.38

$$$$
